biological target: MAO-B (Homo sapiens, UniProt P27338); assay: MAO-B enzyme inhibition (benzylamine substrate, 250 nm); conditions: ratio of MAO-B IC50 values

INPUT SMILES: CSc1ccc(C(=O)/C=C/c2ccc(O)cc2)cc1
U: times
Times more potent than pargyline (MAO-B): 1.3

INPUT SMILES: CSc1ccc(C(=O)/C=C/c2ccccc2)cc1
U: times
Times more potent than pargyline (MAO-B): 1.6

INPUT SMILES: CSc1ccc(C(=O)/C=C/c2ccc(Cl)cc2)cc1
U: times
Times more potent than pargyline (MAO-B): 2.8

====

log10 IC50 listing for selected compounds.
Molecular target: MAO-B (Homo sapiens)
Sequence (P27338 1-520): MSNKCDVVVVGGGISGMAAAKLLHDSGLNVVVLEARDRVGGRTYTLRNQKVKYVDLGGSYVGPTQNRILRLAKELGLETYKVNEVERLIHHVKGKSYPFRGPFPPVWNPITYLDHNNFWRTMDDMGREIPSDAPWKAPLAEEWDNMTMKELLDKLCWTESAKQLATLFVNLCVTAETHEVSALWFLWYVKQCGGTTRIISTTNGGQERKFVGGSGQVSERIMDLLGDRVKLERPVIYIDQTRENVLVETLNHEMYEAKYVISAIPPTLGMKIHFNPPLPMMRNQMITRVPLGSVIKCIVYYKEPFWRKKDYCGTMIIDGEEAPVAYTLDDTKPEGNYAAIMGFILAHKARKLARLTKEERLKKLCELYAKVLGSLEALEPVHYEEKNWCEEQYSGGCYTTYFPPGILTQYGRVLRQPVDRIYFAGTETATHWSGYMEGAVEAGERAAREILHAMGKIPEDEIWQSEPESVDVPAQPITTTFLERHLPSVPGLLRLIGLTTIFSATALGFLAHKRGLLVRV
MEASURED ATTRIBUTE: log10 IC50 (log10 of the value in nM)

COMPOUND: CSc1ccc(C(=O)/C=C/c2ccc(O)cc2)cc1 [TM2]
ENDPOINT RESULT: 1.32
//
COMPOUND: CSc1ccc(C(=O)/C=C/c2ccc(Cl)cc2)cc1 [TM8]
ENDPOINT RESULT: 1.00
//
COMPOUND: CSc1ccc(C(=O)/C=C/c2ccc([N+](=O)[O-])cc2)cc1 [TM7]
ENDPOINT RESULT: 1.36
//
COMPOUND: CSc1ccc(C(=O)/C=C/c2ccc(N(C)C)cc2)cc1 [TM5]
ENDPOINT RESULT: 2.08
//
COMPOUND: CSc1ccc(C(=O)/C=C/c2ccc(C(F)(F)F)cc2)cc1 [TM11]
ENDPOINT RESULT: 1.91
